Biological target: Transcription initiation factor TFIID subunit 1 (Homo sapiens, UniProt P21675)
Sequence (P21675 whole entry): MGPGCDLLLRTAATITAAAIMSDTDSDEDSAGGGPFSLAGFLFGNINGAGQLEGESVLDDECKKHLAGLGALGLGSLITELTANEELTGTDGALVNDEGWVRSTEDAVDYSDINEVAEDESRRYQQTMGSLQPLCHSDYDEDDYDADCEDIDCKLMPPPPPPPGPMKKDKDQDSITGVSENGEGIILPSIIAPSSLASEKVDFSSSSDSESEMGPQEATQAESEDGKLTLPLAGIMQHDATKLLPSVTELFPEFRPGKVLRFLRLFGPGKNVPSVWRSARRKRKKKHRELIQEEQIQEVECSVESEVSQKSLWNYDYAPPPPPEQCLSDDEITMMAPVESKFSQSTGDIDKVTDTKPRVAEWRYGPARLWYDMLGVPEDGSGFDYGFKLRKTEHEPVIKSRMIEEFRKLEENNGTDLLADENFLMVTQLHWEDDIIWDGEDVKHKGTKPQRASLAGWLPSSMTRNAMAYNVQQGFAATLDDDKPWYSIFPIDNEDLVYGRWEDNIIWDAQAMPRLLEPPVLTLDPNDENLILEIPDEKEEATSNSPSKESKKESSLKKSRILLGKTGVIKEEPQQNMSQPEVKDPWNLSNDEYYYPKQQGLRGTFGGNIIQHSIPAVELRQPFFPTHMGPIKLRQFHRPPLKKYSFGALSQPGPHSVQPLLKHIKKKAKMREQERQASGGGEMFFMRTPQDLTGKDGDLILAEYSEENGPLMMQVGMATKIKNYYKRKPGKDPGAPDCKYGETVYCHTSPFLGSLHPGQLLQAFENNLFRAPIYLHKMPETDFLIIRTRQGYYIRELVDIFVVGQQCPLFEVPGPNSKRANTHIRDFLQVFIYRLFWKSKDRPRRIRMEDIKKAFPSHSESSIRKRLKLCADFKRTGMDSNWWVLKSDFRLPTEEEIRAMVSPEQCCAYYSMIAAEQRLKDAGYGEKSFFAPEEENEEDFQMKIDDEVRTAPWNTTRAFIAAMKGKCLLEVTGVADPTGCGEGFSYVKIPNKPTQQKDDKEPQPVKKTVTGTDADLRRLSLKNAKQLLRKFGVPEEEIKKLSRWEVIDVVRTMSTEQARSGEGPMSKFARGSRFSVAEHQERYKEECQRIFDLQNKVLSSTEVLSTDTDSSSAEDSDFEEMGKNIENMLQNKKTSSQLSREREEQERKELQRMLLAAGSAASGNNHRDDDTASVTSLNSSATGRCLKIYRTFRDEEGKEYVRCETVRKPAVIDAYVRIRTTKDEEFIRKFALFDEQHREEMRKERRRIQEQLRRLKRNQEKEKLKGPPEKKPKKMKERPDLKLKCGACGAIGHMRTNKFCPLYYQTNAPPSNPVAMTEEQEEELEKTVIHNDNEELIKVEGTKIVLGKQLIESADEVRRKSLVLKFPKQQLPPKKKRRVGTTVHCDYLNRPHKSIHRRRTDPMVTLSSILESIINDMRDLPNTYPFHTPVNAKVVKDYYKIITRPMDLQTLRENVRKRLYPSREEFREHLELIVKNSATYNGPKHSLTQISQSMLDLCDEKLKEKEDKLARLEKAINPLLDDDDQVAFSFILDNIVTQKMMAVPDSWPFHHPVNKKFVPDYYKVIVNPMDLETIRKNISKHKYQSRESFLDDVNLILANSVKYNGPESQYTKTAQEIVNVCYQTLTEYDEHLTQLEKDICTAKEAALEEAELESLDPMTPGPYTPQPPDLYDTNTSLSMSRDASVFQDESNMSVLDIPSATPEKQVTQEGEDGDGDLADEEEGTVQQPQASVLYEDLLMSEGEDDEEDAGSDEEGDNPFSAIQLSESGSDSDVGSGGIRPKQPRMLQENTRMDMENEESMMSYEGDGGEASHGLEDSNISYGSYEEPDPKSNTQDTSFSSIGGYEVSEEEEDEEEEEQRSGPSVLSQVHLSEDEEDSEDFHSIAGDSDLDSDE
Experiment: TAF1(2) DiscoverX BROMOscan
readout: pKd
Please keep in mind that pKd is minus log10 of the molar concentration; only the number is needed.

Recorded result, COCc1nc2cnc3cc(-c4c(C)noc4C)c(OC[C@H]4CCNC4)cc3c2n1[C@H](C)c1ccccc1 , pKd: 4.52

* * *

Biological target: Acetylcholine receptor subunit alpha (Homo sapiens)
Sequence (P02708 whole entry): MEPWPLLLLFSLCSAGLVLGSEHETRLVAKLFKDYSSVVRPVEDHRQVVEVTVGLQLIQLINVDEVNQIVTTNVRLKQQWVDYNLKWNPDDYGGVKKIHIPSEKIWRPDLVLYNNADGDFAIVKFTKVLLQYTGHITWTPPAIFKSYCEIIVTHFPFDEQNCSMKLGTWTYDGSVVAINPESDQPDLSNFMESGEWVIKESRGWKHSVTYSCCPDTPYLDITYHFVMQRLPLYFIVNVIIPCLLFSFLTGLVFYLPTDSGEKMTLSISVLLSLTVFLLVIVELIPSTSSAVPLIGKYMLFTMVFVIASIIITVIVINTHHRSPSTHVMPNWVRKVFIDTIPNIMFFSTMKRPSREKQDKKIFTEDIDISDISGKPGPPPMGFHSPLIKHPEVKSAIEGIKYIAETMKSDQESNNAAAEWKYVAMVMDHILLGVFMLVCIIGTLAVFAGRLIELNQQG
Test: Cross screening panel
readout: EC50

Recorded result, COCc1nc2cnc3cc(-c4c(C)noc4C)c(OC[C@H]4CCNC4)cc3c2n1[C@H](C)c1ccccc1 [GSK778] , EC50: > 50.1 µM

Cited source for all entries: ChEMBL document CHEMBL4630907
